Reported values of log10 IC50 for individual entries
- Target Of Assay: UniProt:P35463
- Procedure Text: Inhibitory activity measured against Endothelin B receptor binding to porcine cerebellum
- Format: tissue-based
Measure: log10 IC50 (log10 of the value in µM)

>>> test_result("CCCCN(CCCC)CCN1C[C@@H](c2ccc3c(c2)OCO3)[C@H](C(=O)O)[C@H]1c1ccc(OC)cc1")
0.20
>>> test_result("CCCCN(CC)C(=O)CN1C[C@@H](c2ccc3c(c2)OCO3)[C@H](C(=O)O)[C@H]1c1ccc(OC)cc1")
-0.27
>>> test_result("CCCOCCN1C[C@@H](c2ccc3c(c2)OCO3)[C@H](C(=O)O)[C@H]1c1ccc(OC)cc1")
0.70
>>> test_result("CCCN(CCC)C(=O)CCN1C[C@@H](c2ccc3c(c2)OCO3)[C@H](C(=O)O)[C@H]1c1ccc(OC)cc1")
0.62
>>> test_result("COc1ccc([C@@H]2[C@@H](C(=O)O)[C@H](c3ccc4c(c3)OCO4)CN2CC(=O)NCC(C)C)cc1")
-0.74
>>> test_result("CCCCCN(C)C(=O)CN1C[C@@H](c2ccc3c(c2)OCO3)[C@H](C(=O)O)[C@H]1c1ccc(OC)cc1")
-0.20
>>> test_result("C#CCN(C)C(=O)CN1C[C@@H](c2ccc3c(c2)OCO3)[C@H](C(=O)O)[C@H]1c1ccc(OC)cc1")
0.60
>>> test_result("COCCOCCN1C[C@@H](c2ccc3c(c2)OCO3)[C@H](C(=O)O)[C@H]1c1ccc(OC)cc1")
0.53
>>> test_result("CCCCS(=O)(=O)N1C[C@@H](c2ccc3c(c2)OCO3)[C@H](C(=O)O)[C@H]1c1ccc(OC)cc1")
0.79
>>> test_result("CCCS(=O)(=O)CCN1C[C@@H](c2ccc3c(c2)OCO3)[C@H](C(=O)O)[C@H]1c1ccc(OC)cc1")
-0.12
>>> test_result("CCCCNC(=O)N1C[C@@H](c2ccc3c(c2)OCO3)[C@H](C(=O)O)[C@H]1c1ccc(OC)cc1")
1.05
>>> test_result("COc1ccc([C@@H]2[C@@H](C(=O)O)[C@H](c3ccc4c(c3)OCO4)CN2C(=O)N2CCOCC2)cc1")
0.70
>>> test_result("CCCC#CCN1C[C@@H](c2ccc3c(c2)OCO3)[C@H](C(=O)O)[C@H]1c1ccc(OC)cc1")
0.56
>>> test_result("CCCCCCN(C)C(=O)CN1C[C@@H](c2ccc3c(c2)OCO3)[C@H](C(=O)O)[C@H]1c1ccc(OC)cc1")
-0.39
>>> test_result("COc1ccc([C@@H]2[C@@H](C(=O)O)[C@H](c3ccc4c(c3)OCO4)CN2Cc2ccc(F)cc2)cc1")
0.90
>>> test_result("COc1ccc([C@@H]2[C@@H](C(=O)O)[C@H](c3ccc4c(c3)OCO4)CN2C(=O)Nc2ccccc2)cc1")
0.55

---

- Target Of Assay: Endothelin receptor type B (Sus scrofa, UniProt P35463)
- Sequence (P35463 whole entry): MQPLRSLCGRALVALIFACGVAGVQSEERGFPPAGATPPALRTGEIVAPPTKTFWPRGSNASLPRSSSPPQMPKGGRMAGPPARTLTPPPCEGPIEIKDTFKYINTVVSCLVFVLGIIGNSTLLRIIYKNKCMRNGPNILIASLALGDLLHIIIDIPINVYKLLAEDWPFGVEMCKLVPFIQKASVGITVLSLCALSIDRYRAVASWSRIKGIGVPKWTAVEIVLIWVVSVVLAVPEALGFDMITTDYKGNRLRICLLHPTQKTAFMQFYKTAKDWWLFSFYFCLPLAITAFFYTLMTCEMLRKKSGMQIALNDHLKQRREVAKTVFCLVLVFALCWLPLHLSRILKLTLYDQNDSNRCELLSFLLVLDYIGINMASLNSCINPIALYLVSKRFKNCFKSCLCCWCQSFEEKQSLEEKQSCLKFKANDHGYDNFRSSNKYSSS
- Procedure Text: Inhibitory activity measured against Endothelin B receptor binding to porcine cerebellum
- Assay type: tissue-based
Measure: IC50 (µM)

>>> test_result("COc1ccc([C@@H]2[C@@H](C(=O)O)[C@H](c3ccc4c(c3)OCO4)CN2CC(=O)NC2CCCC2)cc1")
0.307
>>> test_result("CCCCN(CCCC)C(=O)N1C[C@@H](c2ccc3c(c2)OCO3)[C@H](C(=O)O)[C@H]1c1ccc(OC)cc1")
1.47
>>> test_result("COc1ccc(NC(=O)N2C[C@@H](c3ccc4c(c3)OCO4)[C@H](C(=O)O)[C@H]2c2ccc(OC)cc2)cc1")
3.79
>>> test_result("COc1ccc([C@@H]2[C@@H](C(=O)O)[C@H](c3ccc4c(c3)OCO4)CN2CC(=O)N(C)c2ccccc2)cc1")
1.18
>>> test_result("COc1ccc([C@@H]2[C@@H](C(=O)O)[C@H](c3ccc4c(c3)OCO4)CN2CC(=O)N2CCCCC2)cc1")
3.04
>>> test_result("CCCCN(CCCC)C(=O)C(C)N1CC(c2ccc3c(c2)OCO3)C(C(=O)O)C1c1ccc(OC)cc1 (centres undefined)")
0.315
>>> test_result("COc1ccc([C@@H]2[C@@H](C(=O)O)[C@H](c3ccc4c(c3)OCO4)CN2CC(=O)N(C)Cc2ccccc2)cc1")
1.68
>>> test_result("COc1ccc([C@@H]2[C@@H](C(=O)O)[C@H](c3ccc4c(c3)OCO4)CN2CC(=O)N(C)C2CCCCC2)cc1")
0.806
>>> test_result("COCCN(CCOC)C(=O)CN1C[C@@H](c2ccc3c(c2)OCO3)[C@H](C(=O)O)[C@H]1c1ccc(OC)cc1")
1.07
>>> test_result("CCCCCCN1C[C@@H](c2ccc3c(c2)OCO3)[C@H](C(=O)O)[C@H]1c1ccc(OC)cc1")
23.3
>>> test_result("CCCCOCCN1C[C@@H](c2ccc3c(c2)OCO3)[C@H](C(=O)O)[C@H]1c1ccc(OC)cc1")
3.83
>>> test_result("CC[S+]([O-])CCN1C[C@@H](c2ccc3c(c2)OCO3)[C@H](C(=O)O)[C@H]1c1ccc(OC)cc1 (some centres undefined)")
0.834
>>> test_result("CCCCN(CCC)C(=O)CN1C[C@@H](c2ccc3c(c2)OCO3)[C@H](C(=O)O)[C@H]1c1ccc(OC)cc1")
0.04
>>> test_result("CCCN(C)C(=O)CN1C[C@@H](c2ccc3c(c2)OCO3)[C@H](C(=O)O)[C@H]1c1ccc(OC)cc1")
2.9

---

Reported values of log10 of IC50 for individual entries
- Target Of Assay: Endothelin receptor type B (Sus scrofa, UniProt P35463)
- Procedure Text: Inhibitory activity measured against Endothelin B receptor binding to porcine cerebellum
- Format: tissue-based
Measure: log10 of IC50 (log10 of the value in nM)

>>> test_result("CCCCNC(=O)CN1C[C@@H](c2ccc3c(c2)OCO3)[C@H](C(=O)O)[C@H]1c1ccc(OC)cc1")
3.10
>>> test_result("COc1ccc([C@@H]2[C@@H](C(=O)O)[C@H](c3ccc4c(c3)OCO4)CN2CCc2ccccn2)cc1")
3.37
>>> test_result("C=CCNC(=O)CN1C[C@@H](c2ccc3c(c2)OCO3)[C@H](C(=O)O)[C@H]1c1ccc(OC)cc1")
2.95
>>> test_result("COCCNC(=O)CN1C[C@@H](c2ccc3c(c2)OCO3)[C@H](C(=O)O)[C@H]1c1ccc(OC)cc1")
3.57
>>> test_result("CCOCCN1C[C@@H](c2ccc3c(c2)OCO3)[C@H](C(=O)O)[C@H]1c1ccc(OC)cc1")
3.95
>>> test_result("COc1ccc([C@@H]2[C@@H](C(=O)O)[C@H](c3ccc4c(c3)OCO4)CN2CCOc2ccccc2)cc1")
3.53
>>> test_result("COc1ccc([C@@H]2[C@@H](C(=O)O)[C@H](c3ccc4c(c3)OCO4)CN2CC(=O)N(CC(C)C)CC(C)C)cc1")
3.26
>>> test_result("CCCN(CCC)C(=O)CN1C[C@@H](c2ccc3c(c2)OCO3)[C@H](C(=O)O)[C@H]1c1ccc(OC)cc1")
2.78

---

- Target Of Assay: Endothelin-1 receptor (Rattus norvegicus, UniProt P26684)
- Sequence (P26684 whole entry): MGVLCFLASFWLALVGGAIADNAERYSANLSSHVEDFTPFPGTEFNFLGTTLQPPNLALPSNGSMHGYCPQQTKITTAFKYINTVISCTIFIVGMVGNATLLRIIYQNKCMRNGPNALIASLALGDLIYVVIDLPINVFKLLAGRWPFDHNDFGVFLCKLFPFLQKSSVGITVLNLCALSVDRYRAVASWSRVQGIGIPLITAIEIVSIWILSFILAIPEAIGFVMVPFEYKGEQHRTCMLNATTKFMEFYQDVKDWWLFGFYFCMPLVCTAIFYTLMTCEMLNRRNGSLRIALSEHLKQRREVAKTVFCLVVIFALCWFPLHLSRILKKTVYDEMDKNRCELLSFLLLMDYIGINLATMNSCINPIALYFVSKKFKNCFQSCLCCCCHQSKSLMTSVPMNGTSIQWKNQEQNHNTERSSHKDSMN
- Procedure Text: Inhibitory activity against the Endothelin A receptor of rat MMQ cells
Reported values of IC50 for individual entries
Measure: IC50

>>> test_result("CCCCC(=O)CN1C[C@@H](c2ccc3c(c2)OCO3)[C@H](C(=O)O)[C@H]1c1ccc(OC)cc1")
"163 nM"
>>> test_result("CCCCN(CCCC)C(=O)C(C)N1CC(c2ccc3c(c2)OCO3)C(C(=O)O)C1c1ccc(OC)cc1 (stereo not drawn)")
"0.46 nM"
>>> test_result("CCCCN(CCCC)C(=O)N1C[C@@H](c2ccc3c(c2)OCO3)[C@H](C(=O)O)[C@H]1c1ccc(OC)cc1")
"396 nM"
>>> test_result("CCCCCN(C)C(=O)CN1C[C@@H](c2ccc3c(c2)OCO3)[C@H](C(=O)O)[C@H]1c1ccc(OC)cc1")
"5.78 nM"
>>> test_result("CCCCS(=O)(=O)N1C[C@@H](c2ccc3c(c2)OCO3)[C@H](C(=O)O)[C@H]1c1ccc(OC)cc1")
"1240 nM"
>>> test_result("COc1ccc([C@@H]2[C@@H](C(=O)O)[C@H](c3ccc4c(c3)OCO4)CN2CC(=O)N(C)Cc2ccccc2)cc1")
"769 nM"
>>> test_result("CCCCNC(=O)N1C[C@@H](c2ccc3c(c2)OCO3)[C@H](C(=O)O)[C@H]1c1ccc(OC)cc1")
"684 nM"
>>> test_result("COc1ccc([C@@H]2[C@@H](C(=O)O)[C@H](c3ccc4c(c3)OCO4)CN2CC(=O)N(C)CC(C)(C)C)cc1")
"112 nM"
